# METHOD_NOTES: Approximate (thermodynamic) solubility in solvents at room temperature
# Format: physicochemical
# MEASUREMENT_CONTEXT: methanol, organic solvent or mixture, thermodynamic from solid

SMILES_INPUT: CC(/C=C/[C@@H]1C[C@]1(C)c1ccc2c(c1)C(C)(C)CCC2(C)C)=C\C(=O)O
solubility: 57.4 to 73.1 mg/mL

###

# METHOD_NOTES: Kinetic solubility at 37° C. in water and three biorelevant media
# Format: physicochemical
# MEASUREMENT_CONTEXT: fed synthetic small intestinal fluid, 37 °C, fessif, thermodynamic from solid, Fed Synthetic Small Intestinal Fluid, 37° C., 24 Hrs; read-out: Observed kinetic aqueous solubility S

COMPOUND: CC(/C=C/[C@@H]1C[C@]1(C)c1ccc2c(c1)C(C)(C)CCC2(C)C)=C\C(=O)O [Tris Form A]
solubility kinetic at 24 h: 340 µg/mL

###

# METHOD_NOTES: Kinetic solubility at 37° C. in water and three biorelevant media
# Format: physicochemical
# MEASUREMENT_CONTEXT: synthetic gastric fluid, 37 °C, simulated gastric fluid, thermodynamic from solid, Synthetic Gastric Fluid, 37° C., 4 Hrs; ND = No Detectable signal by HPLC; read-out: Observed kinetic aqueous solubility S
MEASURED_QUANTITY: solubility kinetic at 4 h (µg/mL)

SMILES_INPUT: CC(/C=C/[C@@H]1C[C@]1(C)c1ccc2c(c1)C(C)(C)CCC2(C)C)=C\C(=O)O
UNIT_SPEC: µg/mL
QUANTITATIVE_READOUT: 20

###

# METHOD_NOTES: Approximate (thermodynamic) solubility in solvents at room temperature
# Assay type: physicochemical
# MEASUREMENT_CONTEXT: ethanol, organic solvent or mixture, thermodynamic from solid
MEASURED_QUANTITY: solubility

COMPOUND: CC(/C=C/[C@@H]1C[C@]1(C)c1ccc2c(c1)C(C)(C)CCC2(C)C)=C\C(=O)O [Compound 1]
RESULT: 74.9 to 91.5 mg/mL
